Source: paper PMC5540273

tested on: CLK1; settings: concentration: 1 μM, replicates: in singlicate; n = 1;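 note: KINOMEscan kinase panel screen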
MEASUREMENT TYPE: %Inh (%)
All answers are understood in %, so give the number only.

Examples with their reported %Inh follow.
>  <MOLECULE>
CC(C)NCC(Cc1ccccc1)NC(=O)c1cc(Br)c(-c2ccnc3[nH]ccc23)s1.Cl.Cl (centres unmarked) [GSK1383281]

>  <SYSTEM>
CLK1

>  <DISPLAY UNIT>
%

>  <%Inh>
40

$$$$
>  <MOLECULE>
Cc1ccc(Nc2ccnc(Nc3ccc(C)c(F)c3)n2)cc1O.Cl [GW582868]

>  <SYSTEM>
CLK1

>  <DISPLAY UNIT>
%

>  <%Inh>
13

$$$$

[in] Tell me the measured %Inh of c1ccc(Oc2ccc(Nc3ccnc4cc(-c5ccc(CN6CCCCC6)o5)ccc34)cc2)nc1 [GW567143] , please.
[out] 1

[in] Please report the recorded %Inh for CN(C)c1ncnc2nc[nH]c12 [SKF-31736] .
[out] 8

[in] Could you share which %Inh value was measured for COC(=O)Nc1nc2ccc(Oc3ccc(NC(=O)Nc4cc(C(F)(F)F)ccc4F)cc3)cc2[nH]1.Cl [GW654607] ?
[out] 52

* * *

system: YSK1; construct: gene STK25; conditions: concentration: 1 μM, replicates: in singlicate; n = 1
Each record here notes measured %Inh.
Express it in %; write the number only.

Please review the entries below; each comes with its answer.
>  <MOLECULE>
Cc1cc(-c2c(-c3ccc(F)cc3)ncn2CCCN2CCOCC2)nc(N)n1 [SB-222517]

>  <DISPLAY UNIT>
%

>  <%Inh>
20

$$$$
>  <MOLECULE>
COC(=O)Nc1nc2ccc(Oc3ccc(CC(=O)Nc4cc(C(F)(F)F)ccc4F)cc3)cc2[nH]1 [GW680903]

>  <DISPLAY UNIT>
%

>  <%Inh>
3

$$$$
>  <MOLECULE>
Cc1ccc(NC(=O)c2ccnc(N3CCCCC3)c2)cc1-c1ccc(C(=O)NCC2CC2)cc1 [GW775610]

>  <DISPLAY UNIT>
%

>  <%Inh>
0

$$$$

Then there is this molecule:
[in] Recorded %Inh of COc1ccc(NC(=O)c2ccoc2)cc1-c1ccc(C(=O)NCC2CC2)cc1 [GW810437] , please.
[out] 0

* * *

system: AXL; details: concentration: 1 μM, replicates: in singlicate; n = 1
MEASUREMENT TYPE: %Inh (%)
Unit % implied. Number only.

Examples from the recorded data:
>  <MOLECULE>
Cl.Cl.NCC(NC(=O)c1cc(-c2cccnc2)c(-c2ccnc3[nH]ccc23)s1)c1ccccc1 (centres unmarked)

>  <DISPLAY UNIT>
%

>  <DATA VALUE>
23

$$$$
>  <MOLECULE>
O=C1NC(=O)C(c2ccccc2Cl)=C1Nc1cccc(Cl)c1

>  <DISPLAY UNIT>
%

>  <DATA VALUE>
0

$$$$
>  <MOLECULE>
Cc1cccc(Nc2nc(NCCN)ncc2C(N)=O)c1

>  <DISPLAY UNIT>
%

>  <DATA VALUE>
9

$$$$
>  <MOLECULE>
Cc1ccc(NC(=O)c2cccc(N3CCCCC3)c2)cc1-c1ccc(C(=O)NCC2CC2)cc1

>  <DISPLAY UNIT>
%

>  <DATA VALUE>
5

$$$$
>  <MOLECULE>
Nc1cccc(-c2ccc3c(N)n[nH]c3c2)c1

>  <DISPLAY UNIT>
%

>  <DATA VALUE>
0

$$$$

[in] Using the record for NCCC(NC(=O)c1cc(Br)c(-c2ccnc3[nH]ccc23)s1)c1ccccc1.O=C(O)C(F)(F)F.O=C(O)C(F)(F)F (centres unmarked) , report its %Inh.
[out] 76

[in] Bench note: what %Inh did O=C(Nc1n[nH]c2nc(-c3cccc(O)c3)ccc12)C1CC1 show?
[out] 12

[in] Entry N#CC1(c2cccc(C(=O)Nc3cccc(Oc4ccc5nc(NC(=O)C6CC6)sc5n4)c3)c2)CC1 has what %Inh?
[out] 62
